target: human NOX4 (Homo sapiens); construct: membrane fraction used; test: Cell free membrane based in vitro NOX4 assay: H2O2 production by membranes expressing human NOX4, measured with Amplex Red; details: class symbols
Sequence (Q9NPH5 whole entry): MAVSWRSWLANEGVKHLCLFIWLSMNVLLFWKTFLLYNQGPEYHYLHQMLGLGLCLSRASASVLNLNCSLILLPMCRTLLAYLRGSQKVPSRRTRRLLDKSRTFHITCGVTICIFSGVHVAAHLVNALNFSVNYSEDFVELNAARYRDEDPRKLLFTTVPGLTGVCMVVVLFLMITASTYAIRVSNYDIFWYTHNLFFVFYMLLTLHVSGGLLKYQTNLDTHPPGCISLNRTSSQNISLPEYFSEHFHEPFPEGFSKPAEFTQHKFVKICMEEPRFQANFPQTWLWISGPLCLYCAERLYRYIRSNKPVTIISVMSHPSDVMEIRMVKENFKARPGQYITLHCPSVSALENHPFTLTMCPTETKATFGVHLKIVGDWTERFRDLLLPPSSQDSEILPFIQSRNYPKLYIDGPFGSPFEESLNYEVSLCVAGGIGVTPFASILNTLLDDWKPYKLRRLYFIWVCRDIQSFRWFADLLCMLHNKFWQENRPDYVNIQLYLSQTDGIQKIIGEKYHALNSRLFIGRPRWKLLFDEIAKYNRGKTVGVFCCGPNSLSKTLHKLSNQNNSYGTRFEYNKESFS
Sequence (P13498 whole entry partner): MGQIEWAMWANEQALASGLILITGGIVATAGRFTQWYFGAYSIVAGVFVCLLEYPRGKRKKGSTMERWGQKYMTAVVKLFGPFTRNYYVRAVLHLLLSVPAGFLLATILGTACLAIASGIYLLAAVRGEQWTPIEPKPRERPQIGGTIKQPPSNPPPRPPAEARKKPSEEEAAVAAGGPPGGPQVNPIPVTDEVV
Where a name gives a salt, the structure may show the parent alone.
Measured endpoint: IC50

query: Give recorded IC50. CCc1nn(C)c2[nH]c(-c3ccc(F)c(C(F)(F)F)c3)c(O)c(=O)c12
result: > 0.15 µM

query: Give recorded IC50. CCn1nc(C)c2c(=O)c(O)c(-c3c(F)cc(OC)cc3F)[nH]c21
result: 0.05 to 0.1 µM

query: Give recorded IC50. Cc1nn(C)c2[nH]c(-c3ccc(F)cc3Cl)c(O)c(=O)c12
result: 0.05 to 0.1 µM

query: Give recorded IC50. Cc1nn(CCN2C[C@@H](C)O[C@@H](C)C2)c2[nH]c(-c3ccccc3Cl)c(O)c(=O)c12
result: > 0.15 µM

query: Give recorded IC50. COc1ccc(-c2[nH]c3c(c(C(F)(F)F)nn3C)c(=O)c2O)c(F)c1
result: 0.05 to 0.1 µM

query: Give recorded IC50. Cc1n[nH]c2[nH]c(-c3c(F)cccc3F)c(O)c(=O)c12
result: 0.05 to 0.1 µM

query: Give recorded IC50. Cn1nc(C2CCN(S(C)(=O)=O)CC2)c2c(=O)c(O)c(-c3ccccc3Cl)[nH]c21
result: 0.05 to 0.1 µM

query: Give recorded IC50. Cn1nc(C2CCN(S(C)(=O)=O)CC2)c2c(=O)c(O)c(-c3c(F)cccc3F)[nH]c21
result: 0.05 to 0.1 µM

query: Give recorded IC50. CC(C)N1CCN(Cc2nn(C)c3[nH]c(-c4c(F)cccc4F)c(O)c(=O)c23)C[C@@H]1C
result: > 0.15 µM

query: Give recorded IC50. Cn1nc(-c2ccc(F)cc2)c2c(=O)c(O)c(-c3c(F)cccc3F)[nH]c21
result: 0.05 to 0.1 µM

query: Give recorded IC50. CCc1nn(CCN2CCOCC2)c2[nH]c(-c3cccc(C(F)(F)F)c3F)c(O)c(=O)c12
result: > 0.15 µM

query: Give recorded IC50. Cn1nc(C(F)(F)F)c2c(=O)c(O)c(-c3ccncc3Cl)[nH]c21 [Example 46, hydrochloride]
result: 0.1 to 0.15 µM

query: Give recorded IC50. CCn1nc(CC(C)C)c2c(=O)c(O)c(-c3c(F)cccc3F)[nH]c21
result: > 0.15 µM

query: Give recorded IC50. CCc1nn(C)c2[nH]c(-c3cccc(C(F)(F)F)c3F)c(O)c(=O)c12
result: > 0.15 µM

query: Give recorded IC50. COCCOc1ccc(-c2[nH]c3c(c(C)nn3C)c(=O)c2O)c(Cl)c1
result: > 0.15 µM

query: Give recorded IC50. O=c1c(O)c(-c2ccccc2Cl)[nH]c2c1c(C(F)(F)F)nn2CCN1CCOCC1
result: > 0.15 µM

query: Give recorded IC50. Cn1nc(CN2CCN(CC(F)(F)F)CC2)c2c(=O)c(O)c(-c3c(F)cccc3F)[nH]c21 [Example 196]
result: 0.1 to 0.15 µM

query: Give recorded IC50. COc1ccc(-c2[nH]c3c(c(C(F)(F)F)nn3C)c(=O)c2O)c(Cl)c1
result: 0.1 to 0.15 µM

query: Give recorded IC50. Cn1nc(CN2CCN(CCF)CC2)c2c(=O)c(O)c(-c3c(F)cccc3F)[nH]c21
result: > 0.15 µM

query: Give recorded IC50. O=c1c(O)c(-c2c(F)cccc2F)[nH]c2c1c(C(F)(F)F)nn2C1CCOCC1
result: > 0.15 µM

query: Give recorded IC50. Cc1nn(C(C)C)c2[nH]c(-c3c(F)cccc3F)c(O)c(=O)c12
result: 0.05 to 0.1 µM

query: Give recorded IC50. Cn1nc(C(F)(F)F)c2c(=O)c(O)c(-c3ccc(O)cc3)[nH]c21
result: > 0.15 µM

query: Give recorded IC50. CCc1nn(CCN2CCOCC2=O)c2[nH]c(-c3ccccc3Cl)c(O)c(=O)c12
result: 0.05 to 0.1 µM

query: Give recorded IC50. Cc1nn(C)c2c(=O)c(O)c(-c3ccccc3Cl)[nH]c12
result: > 0.15 µM

query: Give recorded IC50. Cc1nn(CCN2CCNCC2)c2[nH]c(-c3ccccc3Cl)c(O)c(=O)c12
result: > 0.15 µM

query: Give recorded IC50. Cn1ncc2c(=O)c(O)c(-c3c(F)cccc3Cl)[nH]c21
result: 0.05 to 0.1 µM

query: Give recorded IC50. CCc1nn(CCN2CCOCC2)c2[nH]c(-c3ccccc3Cl)c(O)c(=O)c12 [Example 146]
result: 0.1 to 0.15 µM

query: Give recorded IC50. Cc1nn(C2CCC2)c2[nH]c(-c3c(F)cccc3F)c(O)c(=O)c12
result: < 0.05 µM

query: Give recorded IC50. Cc1nn(CCCN2CCOCC2)c2[nH]c(-c3ccccc3Cl)c(O)c(=O)c12
result: 0.1 to 0.15 µM

query: Give recorded IC50. CCc1nn(CCN2CCOCC2)c2[nH]c(-c3c(F)cccc3F)c(O)c(=O)c12
result: < 0.05 µM

query: Give recorded IC50. CCn1nc(C)c2c(=O)c(O)c(-c3cc(CNC(=O)C(C)(C)C)ccc3Cl)[nH]c21
result: 0.05 to 0.1 µM

query: Give recorded IC50. Cc1nn(-c2ccc(F)cc2)c2[nH]c(-c3c(F)cccc3F)c(O)c(=O)c12
result: < 0.05 µM

query: Give recorded IC50. CCn1nc(C)c2c(=O)c(O)c(-c3ccccc3C(F)(F)F)[nH]c21
result: 0.1 to 0.15 µM

query: Give recorded IC50. CC(C)c1nn(C)c2[nH]c(-c3c(F)cccc3F)c(O)c(=O)c12
result: 0.05 to 0.1 µM
